# assayed-system: CFTR (Homo sapiens, UniProt P13569, DEL508-508)
# Construct: endogenous in cells; host or cells: primary human bronchial epithelial cells from CF subjects (F508del/MF)
# Sequence (P13569 with tags, fused parts or gaps DEL508-508): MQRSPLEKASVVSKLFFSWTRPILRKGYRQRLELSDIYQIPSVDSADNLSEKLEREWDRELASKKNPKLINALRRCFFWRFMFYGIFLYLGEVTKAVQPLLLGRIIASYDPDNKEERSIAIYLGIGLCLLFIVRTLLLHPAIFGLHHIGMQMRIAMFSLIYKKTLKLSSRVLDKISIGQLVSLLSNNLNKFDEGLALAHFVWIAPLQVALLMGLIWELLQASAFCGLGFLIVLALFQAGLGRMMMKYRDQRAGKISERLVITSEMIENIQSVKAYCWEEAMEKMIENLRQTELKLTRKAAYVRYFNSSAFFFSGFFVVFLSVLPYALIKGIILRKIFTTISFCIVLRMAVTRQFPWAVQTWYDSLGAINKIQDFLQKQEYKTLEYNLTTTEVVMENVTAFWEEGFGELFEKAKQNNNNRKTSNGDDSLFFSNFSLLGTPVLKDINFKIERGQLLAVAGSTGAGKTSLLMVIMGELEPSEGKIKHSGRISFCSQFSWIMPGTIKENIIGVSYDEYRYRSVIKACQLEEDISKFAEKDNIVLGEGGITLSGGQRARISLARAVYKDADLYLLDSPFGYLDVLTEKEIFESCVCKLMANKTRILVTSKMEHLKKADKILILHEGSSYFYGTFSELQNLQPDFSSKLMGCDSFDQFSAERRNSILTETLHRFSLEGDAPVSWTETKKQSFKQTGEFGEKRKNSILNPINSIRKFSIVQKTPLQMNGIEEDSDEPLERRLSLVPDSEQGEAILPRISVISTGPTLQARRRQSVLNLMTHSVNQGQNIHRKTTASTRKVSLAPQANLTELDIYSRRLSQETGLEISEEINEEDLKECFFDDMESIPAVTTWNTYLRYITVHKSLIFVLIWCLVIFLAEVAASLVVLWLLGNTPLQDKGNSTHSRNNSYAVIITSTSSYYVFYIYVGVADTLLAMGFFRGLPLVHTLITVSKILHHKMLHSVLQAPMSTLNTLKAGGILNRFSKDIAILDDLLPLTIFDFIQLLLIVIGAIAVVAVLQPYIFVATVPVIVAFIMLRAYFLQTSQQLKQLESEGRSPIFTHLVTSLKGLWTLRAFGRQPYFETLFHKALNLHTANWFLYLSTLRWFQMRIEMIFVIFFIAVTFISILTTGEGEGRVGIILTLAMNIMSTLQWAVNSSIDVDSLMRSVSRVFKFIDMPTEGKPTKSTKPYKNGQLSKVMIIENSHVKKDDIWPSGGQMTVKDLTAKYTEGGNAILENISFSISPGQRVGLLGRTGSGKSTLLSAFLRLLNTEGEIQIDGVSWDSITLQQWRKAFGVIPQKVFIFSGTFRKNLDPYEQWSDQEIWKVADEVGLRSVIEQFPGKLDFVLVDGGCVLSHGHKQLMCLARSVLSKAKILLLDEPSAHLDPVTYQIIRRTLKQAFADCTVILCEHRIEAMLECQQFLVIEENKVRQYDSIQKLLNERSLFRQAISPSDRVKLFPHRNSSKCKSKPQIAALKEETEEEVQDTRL
# procedure-summary: HBE assay: Ussing chamber assay of CFTR-mediated short-circuit currents in F508del/MF-HBE cells
# Assay type: cell-based
# condition: with 1 μM Ivacaftor, 18-24 hours, 20% human serum, compared to known Vertex corrector with 18 μM Tezacaftor and 1 μM Ivacaftor, read-out: HBE Max Activity (%)
readout-type: Emax

Record excerpt, results attached:
>>> observed_result("Cc1cccc(CC2CCCCC2)c1-c1cc2nc(n1)NS(=O)(=O)c1cccc(c1)C(=O)N[C@H](CC(C)(C)C)CO2 [Compound 299]")
"> 60%"
>>> observed_result("Cc1cccc(C)c1-c1cc2nc(n1)NS(=O)(=O)c1cccc(c1)C(=O)NC(C(CC(C)C)c1ccc(C(C)(C)C)cc1)CO2 (stereo not drawn) [Compound 210]")
"30 to 60%"

Reported Emax ( Cc1cccc(C)c1-c1cc2nc(n1)NS(=O)(=O)c1cccc(c1)C(=O)NC(C1CC3(CCC3)C1)CO2 (stereo not drawn) [Compound 50] ) = > 60%

Reported Emax ( Cc1ccc2ccccc2c1-c1cc2nc(n1)NS(=O)(=O)c1cccc(c1)C(=O)N[C@H](CC(C)(C)C)CO2 [Compound 52] ) = > 60%

Reported Emax ( Cc1ccc(C)c(-c2cc3nc(n2)NS(=O)(=O)c2cccc(c2)C(=O)N[C@H](CC(C)(C)C)CO3)c1C [Compound 51] ) = > 60%

Reported Emax ( Cc1cccc(C)c1-c1cc2nc(n1)NS(=O)(=O)c1cccc(c1)C(=O)NC(C(CC(C)C)c1cccc(C(C)(C)C)c1)CO2 (stereo not drawn) [Compound 211] ) = > 60%

====

# EC50 annotations
# assayed-system: UniProt P13569
# procedure-summary: Membrane Potential Dye, Enteroid Assay A
# Assay type: cell-based
# condition: Table 9; read-out: Ent. A EC50

Record excerpt, results attached:
>>> observed_result("Cc1cccc(C)c1-c1cc2nc(n1)NS(=O)(=O)c1cccc(c1)C(=O)NC[C@H](c1ccc(CCC(C)(C)C)cc1)O2 (stereo in doubt) [Compound 149]")
"< 1 µM"
>>> observed_result("Cc1cccc(C)c1-c1cc2nc(n1)NS(=O)(=O)c1cccc(c1)C(=O)NCC(c1ccc([Si](C)(C)C)cc1)O2 (single isomer, unassigned) [Compound 17]")
"< 1 µM"
>>> observed_result("Cc1cccc(C)c1-c1cc2nc(n1)NS(=O)(=O)c1cccc(c1)C(=O)N[C@@H]1CN(Cc3ccccc3)CC[C@H]1O2")
"< 1 µM"
>>> observed_result("CC(C)C[C@@H]1COc2cc(-c3ccccc3Oc3ccccc3)nc(n2)NS(=O)(=O)c2cccc(c2)C(=O)N1")
"< 1 µM"
>>> observed_result("Cc1cccc(C)c1-c1cc2nc(n1)NS(=O)(=O)c1cccc(c1)C(=O)N[C@@H](C(CC(C)C)c1ccccc1)CO2 (stereo in doubt) [Compound 180]")
"< 1 µM"
>>> observed_result("Cc1cccc(C)c1-c1cc2nc(n1)NS(=O)(=O)c1cccc(c1)C(=O)N[C@@H](CC(F)(F)F)CO2 (single isomer, unassigned) [Compound 94]")
"1 to 3 µM"
>>> observed_result("Cc1cccc(C)c1-c1cc2nc(n1)NS(=O)(=O)c1cccc(c1)C(=O)N[C@H](CC(C)C)CCO2")
"< 1 µM"
>>> observed_result("Cc1cccc(C)c1-c1cc2nc(n1)NS(=O)(=O)c1cccc(c1)C(=O)NC1(CCN(C3CC4(CC4)C3)CC1)CO2")
"1 to 3 µM"

Field EC50 (UniProt P13569), entry Cc1cccc(C)c1-c1cc2nc(n1)NS(=O)(=O)c1cccc(c1)C(=O)NCC(c1ccc([Si](C)(C)C)cc1)O2 (stereo not shown) [Compound 15] : < 1 µM

Field EC50 (UniProt P13569), entry Cc1cccnc1-c1cc2nc(n1)NS(=O)(=O)c1cccc(c1)C(=O)N[C@H](CC(C)C)CO2 : 3 to 30 µM

Field EC50 (UniProt P13569), entry Cc1cccc(C)c1-c1cc2nc(n1)NS(=O)(=O)c1cccc(c1)C(=O)NCC(C1CCC(C)(C)CC1)O2 (stereo not shown) : < 1 µM

Field EC50 (UniProt P13569), entry Cc1cccc(C)c1-c1cc2nc(n1)NS(=O)(=O)c1cccc(c1)C(=O)N[C@@H]1CCN(C(=O)OC(C)(C)C)C[C@H]1O2 (single isomer, unassigned) : 1 to 3 µM

Field EC50 (UniProt P13569), entry Cc1cccc(C)c1-c1cc2nc(n1)NS(=O)(=O)c1cccc(c1)C(=O)NCC(CC(C)C)(CC(C)C)CO2 : < 1 µM
